Each recorded value in this set is attributed to the supplement of paper PMC9663587.

- System: HCC1500
- Method description: GRmax, 72 h; higher = less effect
Recorded endpoint: GRmax, 72 h

Sample records with GRmax, 72 h:
>>> val("CN(C)CC[C@H](CSc1ccccc1)Nc1ccc(S(=O)(=O)NC(=O)c2ccc(N3CCN(Cc4ccccc4-c4ccc(Cl)cc4)CC3)cc2)cc1[N+](=O)[O-] [ABT-737] (max 10 µM)")
"-0.736 GR"
>>> val("CC[C@@H]1C(=O)N(C)c2cnc(Nc3ccc(C(=O)N[C@H]4CC[C@H](N5CCN(CC6CC6)CC5)CC4)cc3OC)nc2N1C(C)C [Volasertib/BI6727] (max 1 µM)")
"0.286 GR"

The record that follows has no GRmax, 72 h shown yet.
Request body: readout GRmax, 72 h, system HCC1500, query CCN1CCN(Cc2ccc(Nc3ncc(F)c(-c4cc(F)c5nc(C)n(C(C)C)c5c4)n3)nc2)CC1 (max 10 µM) . Return the value.
0.22 GR

----------
Some molecules, each annotated with its measured area over the GR curve.
- System: SUM229PE
- Method description: area over the GR curve, 72 h; higher = more effect
Could you give me the number in GR? Just the number is fine.

Sample records with area over the GR curve:
>>> val("C[C@@H]1COCCN1c1cc(C2([S@](C)(=N)=O)CC2)nc(-c2cc[nH]c3nccc2-3)n1 [AZD6738] (max 10 µM)")
0.0968
>>> val("COc1cc2nccc(Oc3ccc(NC(=O)C4(C(=O)Nc5ccc(F)cc5)CC4)cc3)c2cc1OC [Cabozantinib] (max 10 µM)")
0.0356
>>> val("CC(=O)O[C@H]1C(=O)[C@@]2(C)[C@H]([C@H](OC(=O)c3ccccc3)[C@]3(O)C[C@H](OC(=O)[C@H](O)[C@@H](NC(=O)c4ccccc4)c4ccccc4)C(C)=C1C3(C)C)[C@]1(OC(C)=O)CO[C@@H]1C[C@@H]2O [Paclitaxel] (max 1 µM)")
0.91
>>> val("O=C1NC(=NCc2cccs2)SC1=Cc1ccc2ncccc2c1 [R0-3306] (max 10 µM)")
0.0926
>>> val("COc1cccc2c1C(=O)c1c(O)c3c(c(O)c1C2=O)C[C@@](O)(C(=O)CO)C[C@@H]3O[C@H]1C[C@H](N)[C@H](O)[C@H](C)O1 [Doxorubicin] (max 3.162 µM)")
0.453

Quick one: area over the GR curve for CN(C)C/C=C/C(=O)Nc1ccc(C(=O)N2CCC[C@@H](Nc3ncc(Cl)c(-c4c[nH]c5ccccc45)n3)C2)cc1 [THZ531] (max 1 µM) ?
0.132

----------
- Test system: AU565
- Method description: area over the GR curve, 72 h; higher = more effect
Recorded endpoint: area over the GR curve (GR)
Could you give me the number in GR? Just the number is fine.

>>> val("C=CCn1c(=O)c2cnc(Nc3ccc(N4CCN(C)CC4)cc3)nc2n1-c1cccc(C(C)(C)O)n1 [AZD1775] (max 10 µM)")
0.496
>>> val("CC(=O)Nc1cccc(-n2c(=O)n(C3CC3)c(=O)c3c(Nc4ccc(I)cc4F)n(C)c(=O)c(C)c32)c1 (max 1 µM)")
-0.0244
>>> val("COc1ccc2c(c1)[C@]1(C[C@H]1c1ccc3c(/C=C/c4ccc(CN5C[C@@H](C)O[C@@H](C)C5)cc4)n[nH]c3c1)C(=O)N2")
0.725
>>> val("COc1cccc2c1C(=O)c1c(O)c3c(c(O)c1C2=O)C[C@@](O)(C(=O)CO)C[C@@H]3O[C@H]1C[C@H](N)[C@H](O)[C@H](C)O1 [Doxorubicin] (max 3.162 µM)")
0.604

Quick one: area over the GR curve for Nc1ccc(-c2ccc3ncc4ccc(=O)n(-c5cccc(C(F)(F)F)c5)c4c3c2)cn1 [Torin2] (max 1 µM) ?
0.657

Quick one: area over the GR curve for CN1CC[C@H](c2c(O)cc(O)c3c(=O)cc(-c4ccccc4Cl)oc23)[C@H](O)C1 [Flavopiridol] (max 1 µM) ?
0.368

----------
- System: HCC1937
- Method description: area over the GR curve, 72 h; higher = more effect
Some compounds, each annotated with its measured area over the GR curve.

>>> val("C=CCn1c(=O)c2cnc(Nc3ccc(N4CCN(C)CC4)cc3)nc2n1-c1cccc(C(C)(C)O)n1 [AZD1775] (max 10 µM)")
"0.707 GR"
>>> val("CN1CCN(C(=O)c2ccc3cc(CCNc4ncnc5ccc(C#N)cc45)ccc3c2)CC1 [senexin b] (max 10 µM)")
"0.286 GR"
>>> val("Cc1cc(C(C)Nc2ccccc2)c2nc(N3CCOCC3)cc(=O)n2c1 (configuration not stated) [TGX221] (max 10 µM)")
"0.0193 GR"
>>> val("NC(=O)Nc1cc(-c2cccc(F)c2)sc1C(=O)N[C@H]1CCCNC1 [AZD7762] (max 10 µM)")
"0.447 GR"
>>> val("CCNC(=O)c1noc(-c2cc(C(C)C)c(O)cc2O)c1-c1ccc(CN2CCOCC2)cc1 [Luminespib/NVP-AUY922] (max 1 µM)")
"0.548 GR"

Quick one: area over the GR curve for O=C1NC(=NCc2cccs2)SC1=Cc1ccc2ncccc2c1 [R0-3306] (max 10 µM) ?
0.143 GR

Quick one: area over the GR curve for CNC(=O)c1cccc(-c2ccc3c(N4CCOC[C@@H]4C)nc(N4CCOC[C@@H]4C)nc3n2)c1 [AZD2014] (max 10 µM) ?
0.52 GR

----------
- System: HCC70
- Method description: GRmax, 72 h; higher = less effect
Some compounds, each annotated with its measured GRmax, 72 h.
Could you give me the number in GR? Just the number is fine.

Quick one: GRmax, 72 h for CCC(=O)Nc1ccc(C(=O)Nc2ccc(Nc3ncc4c(n3)N(C)c3ccc(C)cc3C(=O)N4C)cc2)cc1 [FMF-03-145-1] ?
-0.317

----------
- Test system: SUM44PE
- Method description: area over the GR curve, 72 h; higher = more effect;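 note: Dye Drop or Deep Dye Drop imaging of viable cells in 384-well plates (Hoechst nuclei, LIVE/DEAD dye), nine half-log doses, GR normalized to DMSO controls and time-zero plates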
Recorded endpoint: area over the GR curve
Answer with the value and then the unit.

Sample records with area over the GR curve:
>>> val("COc1cccc(OCCCN)c1-c1cc(Nc2cnc(C#N)cn2)n[nH]1")
"0.75 GR"
>>> val("COc1ccc2c(c1)[C@]1(C[C@H]1c1ccc3c(/C=C/c4ccc(CN5C[C@@H](C)O[C@@H](C)C5)cc4)n[nH]c3c1)C(=O)N2")
"0.898 GR"
>>> val("Cc1nc(NC(=O)N2CCC[C@H]2C(N)=O)sc1-c1ccnc(C(C)(C)C(F)(F)F)c1 [Alpelisib/BYL719] (max 10 µM)")
"0.33 GR"

The record that follows has no area over the GR curve shown yet.
Quick one: area over the GR curve for CN(C)C/C=C/C(=O)Nc1ccc(C(=O)Nc2cccc(Nc3cc(-c4c[nH]c5ccccc45)ncn3)c2)cc1 [THZ-P1-2] (max 10 µM) ?
0.619 GR

----------
- Test system: ZR7530
- Method description: GRmax, 72 h; higher = less effect;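 note: breast cell lines in 384-well plates, nine doses across a 10^4 range, Dye Drop imaging of viable cells vs DMSO and time-zero plates, GR 0 means no net growth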
Some compounds, each annotated with its measured GRmax, 72 h.
Could you give me the number in GR? Just the number is fine.

>>> val("CCOc1cc2ncc(C#N)c(Nc3ccc(OCc4ccccn4)c(Cl)c3)c2cc1NC(=O)/C=C/CN(C)C [Neratinib/HKI272] (max 3.162 µM)")
-0.532
>>> val("CCN1CCN(Cc2ccc(Nc3ncc(F)c(-c4cc(F)c5nc(C)n(C(C)C)c5c4)n3)nc2)CC1 (max 10 µM)")
0.125
>>> val("COc1cc2c(Oc3ccc4[nH]c(C)cc4c3F)ncnc2cc1OCCCN1CCCC1 [Cediranib/AZD2171] (max 10 µM)")
-0.145
>>> val("CN1CC[C@H](c2c(O)cc(O)c3c(=O)cc(-c4ccccc4Cl)oc23)[C@H](O)C1 [Flavopiridol] (max 1 µM)")
-0.662
>>> val("CC(=O)c1c(C)c2cnc(Nc3ccc(N4CCN(CCOCCOCCOCCNC(=O)COc5cccc6c5C(=O)N(C5CCC(=O)NC5=O)C6=O)CC4)cn3)nc2n(C2CCCC2)c1=O (configuration not stated) [BSJ-03-123] (max 10 µM)")
-0.258

Quick one: GRmax, 72 h for CCNC(=O)c1noc(-c2cc(C(C)C)c(O)cc2O)c1-c1ccc(CN2CCOCC2)cc1 [Luminespib/NVP-AUY922] (max 1 µM) ?
0.1

Quick one: GRmax, 72 h for `CCC(=O)Nc1ccc(C(=O)Nc2ccc(Nc3ncc4c(n3)N(C)c3ccc(C)cc3C(=O)N4C)cc2)cc1` ?
-0.0468

Quick one: GRmax, 72 h for CC[C@@H]1C(=O)N(C)c2cnc(Nc3ccc(C(=O)N[C@H]4CC[C@H](N5CCN(CC6CC6)CC5)CC4)cc3OC)nc2N1C(C)C [Volasertib/BI6727] (max 1 µM) ?
-0.42

Quick one: GRmax, 72 h for CO[C@H]1C[C@@H]2CC[C@@H](C)[C@@](O)(O2)C(=O)C(=O)N2CCCC[C@H]2C(=O)O[C@H]([C@H](C)C[C@@H]2CC[C@@H](OCCO)[C@H](OC)C2)CC(=O)[C@H](C)/C=C(\C)[C@@H](O)[C@@H](OC)C(=O)[C@H](C)C[C@H](C)/C=C/C=C/C=C/1C [Everolimus] (max 10 µM) ?
0.169

Quick one: GRmax, 72 h for CN1CCN(CCOc2cc(OC3CCOCC3)c3c(Nc4c(Cl)ccc5c4OCO5)ncnc3c2)CC1 [Saracatinib/AZD0530] (max 10 µM) ?
-0.159

Quick one: GRmax, 72 h for Cc1nn(C)c(COc2ccc(N3CCN(S(=O)(=O)N(C)C)CC3)cc2)c1-c1cccc2c(CCCOc3cccc4ccccc34)c(C(=O)O)n(CCN3CCOCC3)c12 (max 10 µM) ?
0.576

Quick one: GRmax, 72 h for CNCc1ccc(-c2[nH]c3cc(F)cc4c3c2CCNC4=O)cc1 [Rucaparib] (max 10 µM) ?
0.674
